target: human chemokine receptor 2 isoform B (Homo sapiens, UniProt P41597); assay: Calcium mobilization assay (FLIPR, CHOK1-CCR2B-A5 cells, 20 nM MCP-1); settings: Ca mobilisation assay, CCR2, antagonist activity vs 20 nM MCP-1
MEASURED_PARAMETER: IC50 (nM)

Reference set, count: 2
COMPOUND: O=C(/C=C/c1ccc(Cl)c(Cl)c1)N1CCC(=O)N(CC(O)CN2CCC3(CCCO3)CC2)CC1 (racemic)
IC50 (nM): 999
--
COMPOUND: CC1CCC(NCCN2CCN(C(=O)/C=C/c3ccc(Cl)c(Cl)c3)CCC2=O)CC1 (mixture of isomers)
IC50 (nM): 1260

A: CC1CCCN(CC(O)CCN2CCN(C(=O)/C=C/c3ccc(Cl)c(Cl)c3)CCC2=O)C1 (racemic)
B: COC(=O)NC1CCN(CCCN2CCN(C(=O)/C=C/c3ccc(F)c(Cl)c3)CCC2=O)CC1
Data request: Record comparison, field IC50: mark the lower of A and B . Bench note: the answer is the label of the chosen record.
Data returned: A
(A: 416 nM, B: 656 nM)

====

Target: human chemokine receptor 2 isoform B (Homo sapiens)
Sequence (P41597 1-360 isoform P41597-2): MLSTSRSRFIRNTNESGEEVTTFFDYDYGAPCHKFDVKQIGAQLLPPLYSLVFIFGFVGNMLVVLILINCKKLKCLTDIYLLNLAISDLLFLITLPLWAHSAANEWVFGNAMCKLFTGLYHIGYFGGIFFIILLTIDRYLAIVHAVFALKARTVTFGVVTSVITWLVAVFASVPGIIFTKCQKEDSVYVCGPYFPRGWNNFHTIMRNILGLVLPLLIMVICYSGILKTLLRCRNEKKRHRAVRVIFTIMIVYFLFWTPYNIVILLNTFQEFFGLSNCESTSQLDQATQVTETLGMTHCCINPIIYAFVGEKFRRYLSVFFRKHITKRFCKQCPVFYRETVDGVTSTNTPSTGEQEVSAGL
Assay: Calcium mobilization assay (FLIPR, CHOK1-CCR2B-A5 cells, 20 nM MCP-1)
Conditions: Ca mobilisation assay, CCR2, antagonist activity vs 20 nM MCP-1
Procedure: CHOK1-CCR2B-A5 cells (from Euroscreen) stably overexpressing the human chemokine receptor 2 isoform B were cultured in Nutrient Hams F12 medium supplemented with 5% FBS, 100 U/ml penicillin, 100 μg/ml streptomycin, 400 μg/ml G418 and 5 μg/ml puromycin. […] Test compounds were added to the assay plate and agonist activity was monitored as fluorescence for 80 seconds with a FLIPR (488 nm excitation; 510-570 nm emission; Molecular Devices). […]
pIC50: −log10 of the molar value.
MEASURED_PARAMETER: pIC50

Reference set, count: 4
COMPOUND: CC(C)N1CCC(NCCN2CCN(C(=O)/C=C/c3ccc(Cl)c(Cl)c3)CCC2=O)CC1
MEASURED_PARAMETER: pIC50
OBSERVED_VALUE: 6.16
--
COMPOUND: CC1CCN(CCCN2CCN(C(=O)/C=C/c3ccc(Cl)c(Cl)c3)CCC2=O)CC1
MEASURED_PARAMETER: pIC50
OBSERVED_VALUE: 7.26
--
COMPOUND: CN(C)C1CCN(CCCN2CCN(C(=O)/C=C/c3ccc(Cl)c(Cl)c3)CCC2=O)C1 (racemic)
MEASURED_PARAMETER: pIC50
OBSERVED_VALUE: 5.89
--
COMPOUND: CC1(C)CCN(C[C@H](O)CN2CCN(C(=O)/C=C/c3ccc(Cl)c(Cl)c3)CCC2=O)CC1O (stereo partly drawn)
MEASURED_PARAMETER: pIC50
OBSERVED_VALUE: 8.40

P: C[C@H]1CCN(CCCN2CCN(C(=O)/C=C/c3ccc(F)c(Cl)c3)CCC2=O)C[C@H]1O
Q: CO[C@@H]1CN(CCCN2CCN(C(=O)/C=C/c3ccc(Cl)c(Cl)c3)CCC2=O)CC[C@@H]1CO (racemic)
Data request: Record comparison, field pIC50: mark the lower of P and Q . Bench note: the answer is the label of the chosen record.
Data returned: Q

A: COC[C@H]1CCN(C[C@H](O)CN2CCN(C(=O)/C=C/c3ccc(Cl)c(Cl)c3)CCC2=O)C[C@H]1O (mixture of isomers)
B: CC1(CO)CCN(CCCCN2CCN(C(=O)/C=C/c3ccc(Cl)c(Cl)c3)CCC2=O)CC1 (racemic)
C: O=C1NC(=O)C2(CCN(CCCN3CCN(C(=O)/C=C/c4ccc(F)c(Cl)c4)CCC3=O)CC2)N1
Data request: Arrange by pIC50, high to low. Note for the reader: the ranking is given by listing the labels in the order requested.
Data returned: A, B, C
